Molecular target: K-Ras G12C (Homo sapiens (Human), UniProt P01116+P62937, G12C)
Sequence (P01116-2 other isoform, or with tags, fused parts or gaps G12C): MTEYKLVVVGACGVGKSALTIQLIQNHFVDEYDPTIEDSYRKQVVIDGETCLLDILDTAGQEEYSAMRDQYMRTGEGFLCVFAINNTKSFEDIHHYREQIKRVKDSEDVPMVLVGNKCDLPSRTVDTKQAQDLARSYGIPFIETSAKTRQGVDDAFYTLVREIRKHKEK
Sequence (P62937 whole entry): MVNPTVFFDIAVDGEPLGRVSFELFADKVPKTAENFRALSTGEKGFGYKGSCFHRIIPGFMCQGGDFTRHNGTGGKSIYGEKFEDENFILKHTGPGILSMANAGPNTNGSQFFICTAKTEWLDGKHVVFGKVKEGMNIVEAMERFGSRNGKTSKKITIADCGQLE
Assay: Ras-Raf (BRAF RBD) disruption / FRET / MOA assay, KRAS G12C
Type: biochemical
Conditions: KRAS G12C; Ras-Raf disruption/FRET/MOA assay; read-out: IC50* KRAS G12C FRET data
Reported values of IC50 for individual entries
quantity.measured: IC50

CCn1c(-c2cccnc2[C@H](C)OC)c2c3cc(ccc31)-c1cccc(c1)C[C@H](NC(=O)[C@H](C(C)C)N1CC[C@]3(CCN(C(=O)C#C[C@H]4COCCN4C)C3)C1=O)C(=O)N1CCC[C@H](N1)C(=O)OCC(C)(C)C2 (atropisomer, axis not shown)    0.01 to 0.1 µM
C/C=C/S(=O)(=O)N1CC[C@H](C(=O)N(C)[C@H](C(=O)N[C@H]2Cc3cc(O)cc(c3)-c3ccc4c(c3)c(c(-c3cccnc3[C@H](C)OC)n4CC)CC(C)(C)COC(=O)[C@@H]3CCCN(N3)C2=O)C(C)C)C1 (atropisomer, axis not shown)    0.01 to 0.1 µM
C=CC(=O)N(C)[C@@H]1C[C@H]1N(C)C(=O)N(C)[C@H](C(=O)N[C@H]1Cc2nc(cs2)-c2ccc3c(c2)c(c(-c2cccnc2[C@H](C)OC)n3CC)CC(C)(C)COC(=O)[C@@H]2CCCN(N2)C1=O)C(C)C (atropisomer, axis not shown)    0.1 to 1 µM
C=CC(=O)N1CC[C@H](C(=O)N(C)[C@H](C(=O)N[C@H]2Cc3nc(cs3)-c3ccc4c(n3)c(c(-c3cccnc3[C@H](C)OC)n4CC)CC(C)(C)COC(=O)[C@@H]3CCCN(N3)C2=O)C(C)C)C1    0.1 to 1 µM
CCn1c(-c2cccnc2[C@H](C)OC)c2c3cc(ccc31)-c1cccc(c1)C[C@H](NC(=O)[C@H](C(C)C)N(C)C(=O)[C@H]1CCN(C(=O)C#CC(C)(C)N3CCC(F)(F)C3)C1)C(=O)N1CCC[C@H](N1)C(=O)OCC(C)(C)C2 (atropisomer, axis not shown)    1 to 10 µM
C=C(F)C(=O)N1CC2(CCN(C(=O)N(C)[C@H](C(=O)N[C@H]3Cc4nc(cs4)-c4ccc5c(c4)c(c(-c4cccnc4[C@H](C)OC)n5CC)CC(C)(C)COC(=O)[C@@H]4CCCN(N4)C3=O)C(C)C)CC2)C1 (atropisomer, axis not shown)    0.01 to 0.1 µM
C=CC(=O)N1CC(OC[C@H](C(=O)N[C@H]2Cc3cc(cc(C(F)F)c3)-c3ccc4c(c3)c(c(-c3cccnc3[C@H](C)OC)n4CC)CC(C)(C)COC(=O)[C@@H]3CCCN(N3)C2=O)C(C)C)C1 (atropisomer, axis not shown)    1 to 10 µM
CC#CC(=O)N1CC[C@H](C(=O)N(C)[C@H](C(=O)N[C@H]2Cc3nc(cs3)-c3ccc4c(c3)c(c(-c3cccnc3[C@H](C)OC)n4CC)CC(C)(C)COC(=O)[C@@H]3CCCN(N3)C2=O)C2CCCC2)C1 (atropisomer, axis not shown)    1 to 10 µM

src = patent US11566007B2
